system.name: T1, CRBN, Q96SW2;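 further: pooled lentiviral library of zinc finger degron-EGFP fusions in mCherry-positive Jurkat cells, FACS-sorted after compound exposure, with degron abundance counted by next-generation sequencing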
T1 chain: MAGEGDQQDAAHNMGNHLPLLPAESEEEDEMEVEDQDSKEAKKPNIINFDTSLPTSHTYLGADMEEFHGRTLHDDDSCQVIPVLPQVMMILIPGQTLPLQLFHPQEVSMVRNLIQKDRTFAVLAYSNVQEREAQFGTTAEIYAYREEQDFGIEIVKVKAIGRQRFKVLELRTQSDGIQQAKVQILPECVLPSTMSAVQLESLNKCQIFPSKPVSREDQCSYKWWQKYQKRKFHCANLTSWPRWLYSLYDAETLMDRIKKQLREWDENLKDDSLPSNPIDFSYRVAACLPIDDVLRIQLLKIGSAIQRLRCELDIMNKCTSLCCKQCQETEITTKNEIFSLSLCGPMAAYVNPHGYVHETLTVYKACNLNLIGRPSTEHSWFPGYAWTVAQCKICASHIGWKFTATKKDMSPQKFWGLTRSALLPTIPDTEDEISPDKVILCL
measurement.protocol: log2 fold change of degron read counts, EGFP-low vs EGFP+ sorted cells (limma voom), compound-induced degradation; higher = more compound-induced degradation of the degron-EGFP fusion; degrons are variants of IKZF1/3 zinc finger 2; compound dose not given here
condition.details: Jurkat; 18 h; compound: compound 19 (5-tert-butyl-thalidomide)
In all, about 8,300 sequences were measured (“log2 fold change of degron read counts, EGFP-low vs EGFP+ sorted cells (limma voom), compound-induced degradation”: median about -1.1, highest 2% from about 3.2 on). The sample holds the highest values, similar sequences and a random draw of the others, so the mix is not that of the screen.
The following sequences are listed with their measured log2 fold change of degron read counts values.
Form field (numeric): enter value without unit.

Examples from the recorded data:
{"columns": ["biopolymer.sequence", "measured"],
 "data": [
  ["FCCDVCGACFTQKGNLLRHIKL [46F_47C_49D_50V_52G_53A_54C_55F_67L_, Q9UKT9]", 0.633],
  ["FQCDICGAIFTQKGNLLRHIKL [46F_47Q_49D_50I_52G_53A_54I_55F_67L_, Q9UKT9]", -1.32]
]}

q: Name the recorded log2 fold change of degron read counts for FMCEICGRCFTQKGNLLRHIKL [46F_47M_49E_50I_52G_53R_54C_55F_67L_, Q9UKT9] .
a: -2.91

q: Name the recorded log2 fold change of degron read counts for FVCPVCGAIFTQKGNLLRHIKL [46F_47V_49P_50V_52G_53A_54I_55F_67L_, Q9UKT9] .
a: -1.21

q: Name the recorded log2 fold change of degron read counts for FQCNVCGAIFTQKGNLLRHIKL [46F_47Q_49N_50V_52G_53A_54I_55F_67L_, Q9UKT9] .
a: -1.8

q: Name the recorded log2 fold change of degron read counts for FNCPQCGAGFTQKGNLLRHIKL [46F_47N_49P_50Q_52G_53A_54G_55F_67L_, Q9UKT9] .
a: -0.184

q: Name the recorded log2 fold change of degron read counts for LWCEICGFLCTQKGNLLRHIKL [46L_47W_49E_50I_52G_53F_54L_55C_67L_, Q9UKT9] .
a: 1.13
